assay: NCI Yeast Anticancer Drug Screen. Data for the mlh1 rad18 strain (AID 175); conditions: S. cerevisiae mlh1 rad18 strain growth inhibition; at 50.0 µM
About 79,000 compounds went through this panel and 15% of them were active in at least one assay; those are over-represented in the sample as a whole. Activity calls are given as the source filed them. Rule as the data show it: active = growth inhibition above about 70%; inactive = the rest.
Return exactly one item of active, inactive

O=C(Cc1ccccc1)NNc1nc(NNC(=O)c2ccncc2)nc(Nc2ccc([N+](=O)[O-])cc2)n1 :: active
N#CCC(=O)N/N=C(\c1ccccc1)C(c1ccccc1)C1(O)C(=O)Nc2c(Cl)ccc(Cl)c21 (stereo unspecified) :: inactive
OC(Cc1cccc2ccccc12)CN1CCC(c2ccccc2)CC1 (stereo unspecified) :: inactive

INPUT: Dear all, I need the recorded test outcome for "O=S(=O)(NNc1ccccc1)c1ccccc1" , thank you.
OUTPUT: inactive

INPUT: Also, "O=[N+]([O-])/C=C/c1cc2ccc3ccccc3c2[nH]1" please.
OUTPUT: active

INPUT: Also, "CCC(/C=C/c1ccccc1)=N\Nc1ccc(Cl)cc1" please.
OUTPUT: active

* * *

experiment: NCI Yeast Anticancer Drug Screen. Data for the sgs1 mgt1 strain (AID 161);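 also: 0% = growth of cultures given vehicle only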; details: S. cerevisiae sgs1 mgt1 strain, at 50.0 µM
About 79,000 compounds went through this panel and 15% of them were active in at least one assay; those are over-represented in the sample as a whole. Activity calls are given as the source filed them. Rule as the data show it: active = growth inhibition above about 70%; inactive = the rest.
Return exactly one item of 1 = active, 0 = inactive

Study these solved cases before continuing.
COc1ccc(/C=C2\SC(=S)N(/C=C3\C(=O)N(c4ccccc4)N=C3C)C2=O)cc1OC :: 1
CCOC(=O)CC1(C)/C(=N\Nc2ccc([N+](=O)[O-])cc2[N+](=O)[O-])CCC2C1CCC1(C)C(C(C)CCCC(C)C)CCC21 (stereo not drawn) :: 0

INPUT: Dear all, I need the recorded test outcome for CCCCCCCCN1COCC(COc2ccccc2C)OC1 (stereo not drawn) , thank you.
OUTPUT: 1

* * *

Recorded growth inhibition for the following molecules
assay: NCI Yeast Anticancer Drug Screen. Data for the CLN2oe strain (AID 163);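 also: 0% = growth of vehicle-only control cultures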; conditions: S. cerevisiae CLN2oe strain, at 11.0 µM, stronger effect = higher value
About 79,000 compounds went through this panel and 15% of them were active in at least one assay; those are over-represented in the sample as a whole.
// units = %; emit number, no label

CC(=O)N1C=Cc2c(c(C)c3c([nH]c4ccccc43)c2C)C1 :: 91
C[n+]1c(-c2ccc(/C=N/NC(=O)c3ccc(C(=O)N/N=C/c4ccc(-c5cn6ccccc6[n+]5C)cc4)cc3)cc2)cn2ccccc21 :: 13
CCC(/C=C/c1ccccc1)=N\Nc1ccc(Cl)c(Cl)c1 :: -9
O=C1Nc2ccc(Br)cc2C1=Nc1ccc(Cl)cc1 :: 20
C1=CCN([B-](c2ccccc2)[C+]2CCCCC2)C=C1 :: 1

INPUT: I would be grateful if you could share the reported growth inhibition for NC(CCCCCCCCCCCCC(N)C(=O)c1ccccc1)C(=O)c1ccccc1 (stereo unspecified) .
OUTPUT: 52

INPUT: Also, "O=C(/C(=C/c1ccc(O)cc1)c1ccccc1)c1ccccc1" please.
OUTPUT: 61

INPUT: Also, "Cc1cc(Cl)ccc1NC(=O)/C(Cl)=C(/Cl)C(=O)O" please.
OUTPUT: 1

INPUT: Also, CCOC(=O)CC1(C)/C(=N\Nc2ccc([N+](=O)[O-])cc2[N+](=O)[O-])CCC2C1CCC1(C)C(C(C)CCCC(C)C)CCC21 (stereo unspecified) please.
OUTPUT: 6

INPUT: Also, "COc1ccc2nc3cccc([N+](=O)[O-])c3c(NCCNCCO)c2c1" please.
OUTPUT: -5

INPUT: Also, "CN(C)CC(CN(C)C)C(=O)/C=C/c1ccc(Cl)cc1Cl" please.
OUTPUT: -1
